meta.source: patent US11813245B2

# Assay procedure: Phase 1 single ascending dose trial of intravenous HBI-3000: pharmacokinetics
# Format: in vivo
# Applied conditions: human, plasma; 60 mg single iv infusion over 30 min, healthy subjects, N=6
Counter-ions that a name gives are not always drawn.
Measurement kind: half-life (h)
Answers are plain numbers, in h.

Fill in the blank: the reported half-life of COc1ccc(S(=O)(=O)NCc2cc(CN3CCCC3)c(O)c(CN3CCCC3)c2)cc1 [HBI-3000, sulcardine sulfate] is ____.
9.16

====

# Assay procedure: Phase 1 single ascending dose trial of intravenous HBI-3000: pharmacokinetics
# Type: in vivo
# Applied conditions: human, plasma, iv, 360 mg, 360 mg single iv infusion over 30 min, healthy subjects, N=5; read-out: Cmax
Counter-ions that a name gives are not always drawn.
Measurement kind: Cmax (ng/mL)
Give bare numbers, in ng/mL.

Fill in the blank: the reported Cmax of COc1ccc(S(=O)(=O)NCc2cc(CN3CCCC3)c(O)c(CN3CCCC3)c2)cc1 [HBI-3000, sulcardine sulfate] is ____.
3170

====

# Assay procedure: Phase 1 single ascending dose trial of intravenous HBI-3000: pharmacokinetics
# Format: in vivo
# Applied conditions: human, plasma, iv, 180 mg, 180 mg single iv infusion over 30 min, healthy subjects, N=6; read-out: AUC (0-last)
Counter-ions that a name gives are not always drawn.
Measurement kind: AUC(0-t)

Fill in the blank: the reported AUC(0-t) of COc1ccc(S(=O)(=O)NCc2cc(CN3CCCC3)c(O)c(CN3CCCC3)c2)cc1 [HBI-3000, sulcardine sulfate] is ____.
1550 ng·h/mL

====

# Assay procedure: Phase 1 single ascending dose trial of intravenous HBI-3000: pharmacokinetics
# Format: in vivo
# Applied conditions: human, plasma; 60 mg single iv infusion over 30 min, healthy subjects, N=6
Structures can show the parent of a compound that is named as a salt.
Measurement kind: AUC(0-inf) (ng·h/mL)
Give bare numbers, in ng·h/mL.

Fill in the blank: the reported AUC(0-inf) of COc1ccc(S(=O)(=O)NCc2cc(CN3CCCC3)c(O)c(CN3CCCC3)c2)cc1 [HBI-3000, sulcardine sulfate] is ____.
312

====

# Assay procedure: Phase 1 single ascending dose trial of intravenous HBI-3000: pharmacokinetics
# Format: in vivo
# Applied conditions: human, plasma, iv, 60 mg, 60 mg single iv infusion over 30 min, N=6, as used for ΔΔECG model; read-out: Cmax (Table 2)
Where a name gives a salt, the structure may show the parent alone.
Measurement kind: Cmax (ng/mL)
Answers are plain numbers, in ng/mL.

Fill in the blank: the reported Cmax of COc1ccc(S(=O)(=O)NCc2cc(CN3CCCC3)c(O)c(CN3CCCC3)c2)cc1 [HBI-3000, sulcardine sulfate] is ____.
378

====

# Assay procedure: Phase 1 single ascending dose trial of intravenous HBI-3000: pharmacokinetics
# Type: in vivo
# Applied conditions: human, plasma; 20 mg single iv infusion over 30 min, healthy subjects, N=6
Counter-ions that a name gives are not always drawn.
Measurement kind: AUC(0-inf) (ng·h/mL)
Numbers only, in ng·h/mL.

Fill in the blank: the reported AUC(0-inf) of COc1ccc(S(=O)(=O)NCc2cc(CN3CCCC3)c(O)c(CN3CCCC3)c2)cc1 [HBI-3000, sulcardine sulfate] is ____.
175

====

# Assay procedure: Phase 1 single ascending dose trial of intravenous HBI-3000: pharmacokinetics
# Assay type: in vivo
# Applied conditions: human, plasma, iv, 20 mg, 20 mg single iv infusion over 30 min, healthy subjects, N=6; read-out: Cmax
Counter-ions that a name gives are not always drawn.
Measurement kind: Cmax (ng/mL)
One number for each entry, in ng/mL.

Fill in the blank: the reported Cmax of COc1ccc(S(=O)(=O)NCc2cc(CN3CCCC3)c(O)c(CN3CCCC3)c2)cc1 [HBI-3000, sulcardine sulfate] is ____.
131
